These data points were gathered from patent US4329352A.

Experiment: Toxicity in rats, oral administration: dose at which toxic symptoms (changes in the initial ECG, cyanosis or cramp) occur
Format: in vivo, rat (Sprague Dawley)
Conditions: rat, in vivo; rats, oral; changes in initial ECG, cyanosis or cramp; read-out: Toxicity: dose whose administration produces the first toxic symptoms

| compound | scale-unit | TD50 |
| --- | --- | --- |
| COC(=O)c1sccc1OCC(O)CN1CCC(O)(c2ccccc2)CC1 (stereo not shown) | mg/kg | 464 |

====

Measured selectivity ratio by item
Test: Toxicity in rats, oral administration: dose at which toxic symptoms (changes in the initial ECG, cyanosis or cramp) occur
Type: in vivo, rat (Sprague Dawley)
Conditions: rat, in vivo; rats, oral; read-out: Q (therapeutic range): quotient of toxic dose and anti-arrhythmically effective dose (ED 50%)
measurement-type: selectivity ratio

| molecule | measurement-type | measured-result |
| --- | --- | --- |
| CCN(CC)CCNC(=O)c1ccc(N)cc1 [Procainamide, procainamide, reference compound] | selectivity ratio | 6.4 |
| COC(=O)c1sccc1OCC(O)CN1CCC(O)(c2ccccc2)CC1 (centres unmarked) | selectivity ratio | 9.9 |
